meta.source: PubChem BioAssay (NCI)

system: HCT-116 colon; test: NCI-60 one-dose screen, 48 h (100 = growth as untreated, 0 = no growth, -100 = all killed); conditions: 10 µM unless noted
Compounds without any hit were thinned out: in the full panel of roughly 83,000, 20% have a hit.
Listing: growth of selected compounds
Give your result in % as a bare value.

# annotated cases, reported growth shown
[
  {
    "compound": "CN1CCN(CCOc2cc(OC3CCOCC3)c3c(Nc4c(Cl)ccc5c4OCO5)ncnc3c2)CC1",
    "measurement.units": "%",
    "result": 35.3
  },
  {
    "compound": "COC(=O)C1CCc2sc3ncnc(Nc4cn[nH]c4C(=O)Nc4ccc(CN5CCN(C)CC5)cc4)c3c21 (stereo not drawn)",
    "measurement.units": "%",
    "result": 3.34
  }
]

Give the reported value of growth for this record: CCOc1cccc(/C=N/NC(=O)c2ccccc2Nc2ccnc(C(F)(F)F)c2)c1O
14.7

For COc1cc2c(cc1OCCCCCCN1CCN(c3ncnc4ccccc34)CC1)N=CC1CCCN1C2=O (stereo not drawn) , write its growth.
3.4

Please indicate growth recorded for CC(C)=CCc1cc2c(cc1O)C1=C(C(=O)C3=C(NCCS3(=O)=O)C1=O)C(C=C(C)C)O2 (stereo not drawn)
-21.2

Provide growth value for the following compound: COc1ccc(Cc2cc(-c3ccccc3C)n[nH]c2=O)cc1
98

Supply growth value. Item: Cc1cc(C(=O)NOCCO)c(Nc2ccc(I)cc2F)n(C)c1=O
15.2

Tell us which growth value is on record for Cn1ncc(Cl)c1-c1cc(C(=O)N[C@H](CN)Cc2ccc(F)c(F)c2)oc1Cl
-28.3
